Recorded values, source patent US20180339043A1.

Reported EC50 values follow for various compounds
Tested on: PD-L1 antibody
procedure-details: Peptide antibody dissociation ELISA (PD-L1 antibody)
Assay type: binding
condition-parameters: pH 7.2; read-out: EC50 [M] pH 7.2
Bridge positions count the residues as written; N and C are the ends. Peptide text beside a SMILES is read from it.
Expressed in M, but write only the number.

- compound: "CC[C@H](C)[C@@H]1NC(=O)[C@H](CC(=O)O)NC(=O)[C@H](C(C)C)NC(=O)[C@H](CCC(N)=O)NC(=O)[C@@H]2CCCN2C(=O)[C@H](CCC(=O)O)NC(=O)[C@H](Cc2ccc(O)cc2)NC(=O)[C@H](Cc2ccccc2)NC(=O)[C@H]([C@@H](C)O)NC(=O)[C@H](CO)NC(=O)[C@@H](NC(=O)[C@H](CC(C)C)NC(=O)CNC(=O)CN)CSSC[C@@H](C(=O)N[C@@H](Cc2ccc(O)cc2)C(=O)O)NC1=O [Peptide 29] (H-GGLCSTFYEPQVDICY-OH; disulfide 4-15)"
  parameter: "EC50"
  unit-descriptor: "M"
  observed-result: "2.3e-10"

Now let's try a different one.
Exercise: Give EC50 for CC(C)C[C@@H]1NC(=O)CNC(=O)[C@H](CO)NC(=O)[C@H](CCCCN)NC(=O)[C@H](CC(N)=O)NC(=O)[C@H](Cc2c[nH]cn2)NC(=O)[C@@H](NC(=O)CNC(=O)CN)CSSC[C@@H](C(=O)O)NC(=O)[C@H](Cc2ccc(O)cc2)NC(=O)[C@H](Cc2c[nH]cn2)NC(=O)[C@H](Cc2ccc(O)cc2)NC(=O)[C@H](Cc2ccccc2)NC1=O [Peptide 24] (H-GGCHNKSGLFYHYC-OH; disulfide 3-14)
Key: 2e-10
